src = paper PMC5000617

# assay_info: Annexin V-FITC/PI apoptosis assay by flow cytometry, THP-1
# Format: cell-based, human
# cond: human, THP-1 cells; THP-1, 10 μM, 24 h, representative dot plot; read-out: quadrant I: viable cells
metric_name: viability at 24 h, 10 µM

Exercise: If you can, please state the reported viability at 24 h, 10 µM value of O=C(Nc1cccc([N+](=O)[O-])c1)c1cc2ccccc2cc1O .
Key: 44.6%

###

Item-by-item account of pIC50
# System: MCF-7 cells
# assay_info: WST-1 cell proliferation assay, MCF-7
# Format: cell-based, human
# cond: Homo sapiens, MCF7; WST-1, 24 h, 0.5-20 μM, mean ± SD
The read-out pIC50 is expressed as -log10 of concentration in moles per litre.

> print(dat)
                                   compound  observed.measurement
1  O=C(Nc1ccc([N+](=O)[O-])cc1)c1c(O)ccc2ccccc12 [Compound 6]                  5.28

Exercise: If you can, please state the reported pIC50 value of O=C(Nc1ccc([N+](=O)[O-])cc1)c1cc2ccccc2cc1O [Compound 3] .
Key: 5.78

Exercise: If you can, please state the reported pIC50 value of O=C(Nc1cccc([N+](=O)[O-])c1)c1cc2ccccc2cc1O [Compound 2] .
Key: 5.34
